meta.source: patent US8946124B2

- ASSAY_PROCEDURE: Octanol/water distribution coefficient (log P/D), isocratic HPLC method
- Format: physicochemical
- CONDITION_PARAMETERS: pH 7.4; mean (range, n); read-out: logP/D pH 7.4
Parameter chromatographic logD: see the listing below.
Please state the value as a number alone, without comment.

Answered cases to consult:
What value of chromatographic logD has been reported for the following compound? Cc1ccc(-c2ccc(Cl)cc2)cc1C1=C(O)C2(CCCCC2)NC1=O [V.2-b, reference compound] 2.77

Moving on to the next compound: Cc1ccc(-c2ccc(Cl)c(F)c2)cc1C1=C(O)C2(CCC(F)(F)CC2)NC1=O [Example 1-1] 1.9

Moving on to the next compound: Cc1ccc(-c2ccc(Cl)cc2)cc1C1=C(O)[C@]2(CC[C@H](C(F)(F)F)CC2)NC1=O [V.2-a] 2.23

Next:
What value of chromatographic logD has been reported for the following compound? Cc1ccc(-c2ccc(Cl)c(F)c2)cc1C1=C(O)C2(CCCCC2)NC1=O [V.1-b] 2.8

Moving on to the next compound: Cc1ccc(-c2ccc(Cl)c(F)c2)cc1C1=C(O)[C@]2(CC[C@H](C(F)(F)F)CC2)NC1=O [V.1-a] 2.55

Moving on to the next compound: Cc1ccc(-c2ccc(Cl)cc2)cc1C1=C(O)C2(CCC(F)(F)CC2)NC1=O [Example 1-2] 1.73

---

- Test system: Myzus persicae
- ASSAY_PROCEDURE: Myzus test (MYZUPE spray treatment)
- Assay type: in vivo
- CONDITION_PARAMETERS: 500 g/ha, after 6 days
Parameter effect in % (aphids killed): see the listing below.
The reply should be a number in %, with the unit left off.

Answered cases to consult:
What value of effect in % (aphids killed) has been reported for the following molecule? Cc1ccc(-c2ccc(Cl)c(F)c2)cc1C1=C(O)C2(CCC(F)(F)CC2)NC1=O [Example 1-1] 90

Moving on to the next molecule: Cc1ccc(-c2ccc(Cl)cc2)cc1C1=C(O)C2(CCC(F)(F)CC2)OC1=O [Example I-2-a-3] 90

Moving on to the next molecule: Cc1ccc(-c2ccc(F)cc2)c(C)c1C1=C(O)C2(CCC(F)(F)CC2)OC1=O [Example I-2-a-2] 100

Moving on to the next molecule: Cc1ccc(-c2ccc(F)cc2)c(C)c1C1=C(O)C2(CCC(F)(F)CC2)NC1=O [Example I-1-a-2] 100

Next:
What value of effect in % (aphids killed) has been reported for the following molecule? Cc1ccc(-c2ccc(F)cc2)c(C)c1C1=C(O)C2(CC=C(F)CC2)NC1=O (stereo not drawn) [Example I-1-a-12] 100

Moving on to the next molecule: Cc1cc(Cl)cc(C)c1C1=C(O)C2(CCC(F)(F)CC2)NC1=O [Example I-1-a-7] 100
